- assayed.system: PI3K α (Homo sapiens, UniProt P42336)
- Construct: purchased Upstate
- Sequence (P42336 whole entry): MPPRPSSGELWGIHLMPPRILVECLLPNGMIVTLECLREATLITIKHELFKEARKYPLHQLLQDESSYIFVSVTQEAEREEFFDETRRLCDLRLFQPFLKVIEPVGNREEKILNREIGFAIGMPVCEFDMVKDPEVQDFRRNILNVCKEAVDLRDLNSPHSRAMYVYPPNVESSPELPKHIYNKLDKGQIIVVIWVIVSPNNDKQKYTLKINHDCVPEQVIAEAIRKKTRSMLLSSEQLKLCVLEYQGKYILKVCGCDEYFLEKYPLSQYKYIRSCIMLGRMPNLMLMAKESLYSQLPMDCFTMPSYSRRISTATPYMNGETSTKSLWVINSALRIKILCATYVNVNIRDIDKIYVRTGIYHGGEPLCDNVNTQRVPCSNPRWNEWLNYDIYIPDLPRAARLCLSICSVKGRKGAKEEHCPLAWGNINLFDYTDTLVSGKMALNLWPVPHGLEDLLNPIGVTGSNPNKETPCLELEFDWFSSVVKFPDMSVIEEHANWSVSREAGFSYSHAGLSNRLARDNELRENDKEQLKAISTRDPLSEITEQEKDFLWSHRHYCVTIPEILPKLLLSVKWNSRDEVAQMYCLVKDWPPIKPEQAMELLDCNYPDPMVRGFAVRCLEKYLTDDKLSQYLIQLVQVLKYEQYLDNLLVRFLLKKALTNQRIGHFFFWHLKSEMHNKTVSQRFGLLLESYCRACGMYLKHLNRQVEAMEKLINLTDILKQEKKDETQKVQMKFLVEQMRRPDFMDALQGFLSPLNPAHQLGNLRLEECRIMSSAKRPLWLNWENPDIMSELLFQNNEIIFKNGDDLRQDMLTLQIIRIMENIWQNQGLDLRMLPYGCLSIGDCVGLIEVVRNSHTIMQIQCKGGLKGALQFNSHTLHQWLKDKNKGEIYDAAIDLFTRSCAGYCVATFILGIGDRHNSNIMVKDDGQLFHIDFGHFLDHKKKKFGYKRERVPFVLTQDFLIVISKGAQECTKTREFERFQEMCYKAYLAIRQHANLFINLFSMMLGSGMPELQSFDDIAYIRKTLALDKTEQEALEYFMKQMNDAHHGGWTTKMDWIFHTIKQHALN
- Sequence (P27986 whole entry partner): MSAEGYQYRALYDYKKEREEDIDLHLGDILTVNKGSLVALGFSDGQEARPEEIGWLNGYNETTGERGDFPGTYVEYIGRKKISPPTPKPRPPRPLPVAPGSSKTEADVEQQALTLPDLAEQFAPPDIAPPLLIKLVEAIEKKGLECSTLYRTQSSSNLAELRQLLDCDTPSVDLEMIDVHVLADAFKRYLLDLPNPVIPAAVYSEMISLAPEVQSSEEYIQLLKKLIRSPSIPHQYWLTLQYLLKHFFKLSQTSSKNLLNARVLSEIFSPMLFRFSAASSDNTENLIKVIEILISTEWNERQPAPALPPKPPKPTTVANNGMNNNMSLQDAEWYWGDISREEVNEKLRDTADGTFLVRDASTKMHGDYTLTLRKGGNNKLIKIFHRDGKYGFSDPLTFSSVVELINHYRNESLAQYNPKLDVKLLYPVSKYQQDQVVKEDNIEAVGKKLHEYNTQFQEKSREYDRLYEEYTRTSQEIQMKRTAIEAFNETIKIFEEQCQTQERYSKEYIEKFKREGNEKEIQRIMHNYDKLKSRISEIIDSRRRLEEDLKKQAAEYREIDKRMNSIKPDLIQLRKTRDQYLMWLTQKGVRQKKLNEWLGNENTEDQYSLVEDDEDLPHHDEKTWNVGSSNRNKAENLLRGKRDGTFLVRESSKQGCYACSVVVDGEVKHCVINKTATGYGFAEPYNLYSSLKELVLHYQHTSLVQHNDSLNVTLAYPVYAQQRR
- protocol.notes: In vitro IC50, PI3K α (p110α/p85α inhibition assay)
- Assay type: biochemical
- condition: in vitro kinase assay; read-out: IC50(nM) PI3K α
Some molecules, each annotated with its measured IC50.

The examples below pair each entry with its known result.
CC(=O)N1CCC(Oc2nc(C(C)Nc3ncnc4[nH]cnc34)cc3ccccc23)CC1 (stereo not shown) : > 10000 nM
CC(=O)N1CCN(c2nc([C@H](C)Nc3ncnc4[nH]cnc34)nc3cccc(Cl)c23)CC1 : > 10000 nM
C[C@H](Nc1ncnc2[nH]cnc12)c1cc2cccc(Cl)c2c(-c2cccnc2)n1 : > 10000 nM
Cc1cccc2cc(C(C)Nc3ncnc4[nH]cnc34)nc(OC3CCN(C(C)C)CC3)c12 (stereo not shown) : < 10000 nM
Cc1cccc2cc(Cn3nc(-c4cn[nH]c4)c4c(N)ncnc43)nc(N3CCCC3)c12 : < 10000 nM

[in] // returns reported IC50 for input Cc1cccc2cc(C(C)Nc3ncnc4[nH]cnc34)nc(OCC3CCN(C(C)C)CC3)c12 (stereo not shown)
[out] < 10000 nM

[in] Try the molecule `C[C@H](Nc1ncnc2[nH]cnc12)c1cc2cccc(Cl)c2c(OCCN2CCOCC2)n1`
[out] < 10000 nM

====

Some molecules, each annotated with its measured IC50.
- assayed.system: PI3K γ (Homo sapiens, UniProt P48736)
- Construct: purchased Sigma
- Sequence (P48736 whole entry): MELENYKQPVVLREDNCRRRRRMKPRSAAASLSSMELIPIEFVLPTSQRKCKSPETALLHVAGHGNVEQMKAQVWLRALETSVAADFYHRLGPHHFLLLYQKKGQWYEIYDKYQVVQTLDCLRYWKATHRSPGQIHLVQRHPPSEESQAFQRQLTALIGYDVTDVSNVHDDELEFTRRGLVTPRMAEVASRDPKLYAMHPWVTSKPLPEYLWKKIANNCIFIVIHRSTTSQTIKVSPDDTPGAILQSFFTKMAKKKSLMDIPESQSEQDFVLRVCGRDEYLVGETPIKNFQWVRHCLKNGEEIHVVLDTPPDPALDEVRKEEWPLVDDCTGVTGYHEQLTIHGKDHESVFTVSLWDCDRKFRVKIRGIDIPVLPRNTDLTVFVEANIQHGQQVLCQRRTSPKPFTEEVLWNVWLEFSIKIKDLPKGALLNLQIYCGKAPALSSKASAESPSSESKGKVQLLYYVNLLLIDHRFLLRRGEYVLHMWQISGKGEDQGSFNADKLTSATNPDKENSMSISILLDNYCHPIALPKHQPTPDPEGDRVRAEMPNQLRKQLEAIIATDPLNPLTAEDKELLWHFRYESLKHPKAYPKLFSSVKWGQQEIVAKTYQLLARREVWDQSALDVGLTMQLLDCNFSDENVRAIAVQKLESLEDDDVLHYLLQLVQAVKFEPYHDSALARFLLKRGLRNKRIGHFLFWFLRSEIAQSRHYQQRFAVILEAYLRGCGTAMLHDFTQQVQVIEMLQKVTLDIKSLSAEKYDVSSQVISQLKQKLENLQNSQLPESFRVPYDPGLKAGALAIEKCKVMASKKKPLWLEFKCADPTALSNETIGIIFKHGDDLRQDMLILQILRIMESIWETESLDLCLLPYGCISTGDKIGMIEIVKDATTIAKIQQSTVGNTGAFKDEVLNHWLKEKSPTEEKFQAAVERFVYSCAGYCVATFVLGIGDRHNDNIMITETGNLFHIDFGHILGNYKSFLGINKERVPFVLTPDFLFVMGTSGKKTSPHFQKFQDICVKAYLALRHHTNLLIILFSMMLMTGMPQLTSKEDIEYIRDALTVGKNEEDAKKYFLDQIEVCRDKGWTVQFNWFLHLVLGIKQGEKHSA
- protocol.notes: In vitro IC50, PI3K γ (p110γ inhibition assay)
- Type: biochemical
- condition: in vitro kinase assay

The examples below pair each entry with its known result.
CCN1CCC(COc2nc(C(C)Nc3ncnc4[nH]cnc34)cc3cccc(C)c23)CC1 (stereo not shown) [Compound 46] : > 10000 nM
C[C@H](Nc1ncnc2[nH]cnc12)c1cc2ccccc2c(-c2cccnc2)n1 [Compound 76] : < 10000 nM
CC(C)N1CCC(Oc2nc(Cn3nc(-c4cn[nH]c4)c4c(N)ncnc43)cc3cccc(Cl)c23)CC1 [Compound 57] : > 10000 nM
C[C@@H](Nc1ncnc2[nH]cnc12)c1cc2cccc(Cl)c2c(N2CCN(S(C)(=O)=O)CC2)n1 [Compound 83] : > 10000 nM
CC(Nc1ncnc2[nH]cnc12)c1cc2cccc(Cl)c2c(OC2CCN(S(C)(=O)=O)CC2)n1 (stereo not shown) [Compound 54] : > 10000 nM
CS(=O)(=O)N1CCC(Oc2nc(Cn3nc(-c4cn[nH]c4)c4c(N)ncnc43)cc3cccc(Cl)c23)CC1 [Compound 58] : > 10000 nM

[in] // returns reported IC50 for input Cc1cccc2cc(C(C)Nc3ncnc4[nH]cnc34)nc(NC3CCOCC3)c12 (stereo not shown) [Compound 43]
[out] > 10000 nM

====

- assayed.system: PI3K γ (Homo sapiens)
- Construct: purchased Sigma
- protocol.notes: In vitro IC50, PI3K γ (p110γ inhibition assay)
- Type: biochemical
- condition: in vitro kinase assay
Some molecules, each annotated with its measured IC50.

[in] // returns reported IC50 for input `CC(=O)N1CCN(c2nc(Cn3nc(-c4cn[nH]c4)c4c(N)ncnc43)cc3cccc(Cl)c23)CC1`
[out] < 10000 nM

====

- assayed.system: PI3K γ (Homo sapiens, UniProt P48736)
- Construct: purchased Sigma
- protocol.notes: In vitro IC50, PI3K γ (p110γ inhibition assay)
- Format: biochemical
- condition: in vitro kinase assay
test.readout: IC50

The examples below pair each entry with its known result.
Cc1cccc2cc(Cn3nc(-c4cn[nH]c4)c4c(N)ncnc43)nc(N3CCCC3)c12 : < 1000 nM
Nc1nc2cc(-c3nn(Cc4cc5ccccc5c(N5CCCC5)n4)c4ncnc(N)c34)ccc2o1 : < 100 nM
Cc1cccc2cc(Cn3nc(-c4ccc5oc(N)nc5c4)c4c(N)ncnc43)nc(N3CCOCC3)c12 : < 100 nM
Cc1cccc2cc(Cn3nc(-c4ccc5oc(N)nc5c4)c4c(N)ncnc43)nc(OC3CCN(C)CC3)c12 : < 100 nM

Please examine the following record next.
[in] // returns reported IC50 for input `C[C@H](Nc1ncnc2[nH]cnc12)c1cc2cccc(Cl)c2c(OCCN2CCOCC2)n1`
[out] < 1000 nM
